method notes: Terminal half life in Sprague-Dawley rat at 10 mg/kg, po
Format: ADME, organism-based
Design: dose 10 mg/kg, route oral
run parameters: in vivo, read-out: beta t1/2

# compound, half-life [h]
records = [
    ("Clc1ccc(COc2ccccc2/C=N/OC2CCN(Cc3ccccc3)C2)cc1Cl (stereo unspecified)", 2.92),
]

* * *

method notes: AUC (0 to infinity) in Sprague-Dawley rat at 10 mg/kg, po
Format: ADME, organism-based
Parameters: time infinity, dose 10 mg/kg, route oral
run parameters: plasma

# compound, AUC(0-inf), ng·h/mL
measured = [
    ("Clc1ccc(COc2ccccc2/C=N/OC2CCN(Cc3ccccc3)C2)cc1Cl (stereo unspecified)", 2390),
]

Data credit: ChEMBL document CHEMBL2331084
